# Target desc: T1, alpha subunit of the human FcεRI receptor expressed on Chinese hamster ovary cells (human, UniProt P12319 26-257)
# T1 construct: whole, on cells; also called CHO FcεRI+ cells
# T1 sequence (looked up): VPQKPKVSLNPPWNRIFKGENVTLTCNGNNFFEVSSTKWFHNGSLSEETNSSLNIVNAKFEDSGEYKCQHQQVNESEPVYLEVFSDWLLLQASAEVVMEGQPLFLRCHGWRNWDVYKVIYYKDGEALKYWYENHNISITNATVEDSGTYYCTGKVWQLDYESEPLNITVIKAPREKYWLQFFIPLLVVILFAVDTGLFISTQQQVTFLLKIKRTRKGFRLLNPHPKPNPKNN
# Test method notes: inhibition of 125I-IgE binding to CHO cells expressing human FcεRI alpha subunit
pIC50: −log10 of the molar value. Bridges are numbered along the chain shown (N, C = ends). Where no end group is shown, it is not given here. [ ]: non-standard residue; d: D form. Pip = O=C(O)[C@@H]1CCCCN1; Sar = CNCC(=O)O
Endpoint: pIC50

{"columns": ["Binder", "Readout value"],
 "data": [
  ["Ac-NLPRCTEG[Sar]WGWVCM-NH2 (disulfide 5-14, synthetic) [IGE087]", 3.87],
  ["NLPRCTEGPWGAVCM (disulfide 5-14 (inferred), synthetic) [IGE073]", 3.93],
  ["Ac-NLPRCTEGPWGWVCMAAD-NH2 (disulfide 5-14 (inferred), synthetic) [IGE042]", 5.82],
  ["Ac-NLPRCTEGPWGWVCM-NH2 (disulfide 5-14 (inferred), synthetic) [IGE058]", 5.74],
  ["Ac-NLPRCTEG[Pip]WGWVCM (disulfide 5-14 (inferred), synthetic) [IGE095]", 4.64],
  ["Ac-NLPRCTEGPWGWVC-NH2 (disulfide 5-14 (inferred), synthetic) [IGE092]", 4.70]
]}
